For each entry below, report its T1/2 (fatigue life) value.
# runDescription: Xenon long-life fadeometer test of photochromic poly(methyl methacrylate) cast film (initial coloration density, T1/2, λmax), Example 9
# Format: physicochemical
# conditions: poly(methyl methacrylate) cast film 0.1 mm; time for color density to decrease to half of initial value; xenon fadeometer
Report only the number, with the unit h understood.

# T1/2 (fatigue life) of CC1=C2C(=O)OC(=O)C2C2(CC3CCC2(C)C3(C)C)c2sc(C)cc21 (stereo not shown) = 11

# T1/2 (fatigue life) of COC(=O)CN1C(=O)C2=C(C)c3ccsc3C3(C4CC5CC(C4)CC3C5)C2C1=O (stereo not shown) = 38

# T1/2 (fatigue life) of COc1ccc2c3c(sc2c1)C1(C2CC4CC(C2)CC1C4)C1C(=O)N(CCl)C(=O)C1=C3C (stereo not shown) = 30

# T1/2 (fatigue life) of CCN1C(=O)C2=C(C)c3ccsc3C3(C4CC5CC(C4)CC3C5)C2C1=O (stereo not shown) [(X), reference compound] = 3

# T1/2 (fatigue life) of CC1=C2C(=O)N(CC#N)C(=O)C2C2(c3occc31)C1CC3CC(C1)CC2C3 (stereo not shown) = 48

# T1/2 (fatigue life) of CC1=C2C(=O)N(CC(=O)OCC(C)C)C(=O)C2C2(CC3CCC2C3)c2sc(Br)cc21 (stereo not shown) = 43

# T1/2 (fatigue life) of COCCOCN1C(=O)C2=C(C)c3c(oc4ccccc34)C3(C4CC5CC(F)(C4)CC3(F)C5)C2C1=O (stereo not shown) = 31

# T1/2 (fatigue life) of CC(=O)CN1C(=O)C2=C(c3ccccc3)c3cc(-c4ccccc4)sc3C3(C4CC5CC(C4)CC3C5)C2C1=O (stereo not shown) = 40

# T1/2 (fatigue life) of COC12CC3CC(C1)C1(c4oc5ccccc5c4C(C)=C4C(=O)N(CC(=O)OC(C)(C)CCC#N)C(=O)C41)C(C3)C2 (stereo not shown) = 42

# T1/2 (fatigue life) of CCCCC12CC3CC(C1)C1(c4c(n(C)c5ccccc45)C(C)=C4C(=O)N(CC(=O)OCCC#N)C(=O)C41)C(Cl)(C3)C2 (stereo not shown) = 44

# T1/2 (fatigue life) of CNC(=O)CN1C(=O)C2=C(C)c3cc([N+](=O)[O-])sc3C3(C4CC5CC(C4)CC3C5)C2C1=O (stereo not shown) = 39

# T1/2 (fatigue life) of CC1=C2C(=O)N(C[N+](=O)[O-])C(=O)C2C2(c3sc(C)cc31)C1CC3CC(C1)CC2C3 (stereo not shown) = 30

# T1/2 (fatigue life) of CCCCC12CC3CC(C1)C1(c4c(OC)cc(OC)cc4C(c4ccccc4)=C4C(=O)N(C(C)(C)C#N)C(=O)C41)C(C3)C2 (stereo not shown) = 48

# T1/2 (fatigue life) of CC1=C2C(=O)N(CC#N)C(=O)C2C2(c3sccc31)C1CC3CC(C1)CC2C3 (stereo not shown) = 46

# T1/2 (fatigue life) of CC1=C2C(=O)OC(=O)C2C2(CC3CCC2C3)c2sc(Br)cc21 (stereo not shown) = 15

# T1/2 (fatigue life) of CCN1C(=O)C2=C(C)c3cc(OC)c(OC)c(OC)c3C3(CC4CCC3C4)C2C1=O (stereo not shown) = 8
